B1: Gamma-crystallin C, residues 91 to 170; numbered along this chain, P07315 (parent)
chain: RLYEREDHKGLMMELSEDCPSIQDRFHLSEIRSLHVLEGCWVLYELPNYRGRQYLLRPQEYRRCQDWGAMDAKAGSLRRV

variants of: B1; experiment: abundance fitness (aPCA) (normalised: wild type 0, dead -1); higher = more abundant; growth selection in yeast, the domain comes from the species named; settings: Homo sapiens
Categorized via abundance fitness: range 1: < -0.6; range 2: ≥ -0.6 and < -0.2; range 3: ≥ -0.2

// query Which bin, given its abundance fitness, does "G39L" occupy?
// result range 1

// query Kindly identify the class of "E14Y" .
// result range 3

// query // return the class label for "A72I"
// result range 1

// query // return the class label for "S29H"
// result range 3

// query # bin lookup: classify "G68C" by its abundance fitness
// result range 1

// query For this variant, which bin applies? "C40T"
// result range 3

// query Which bin should I file "A72N" under?
// result range 3

// query Please indicate the class for "Y44E" based on its abundance fitness.
// result range 1

// query Class for "D7Q" ?
// result range 2

// query Hi, small favor: classify "S16L" by its abundance fitness when you get a moment.
// result range 2

// query Using the reported abundance fitness, which band applies to "A72H" ?
// result range 2

// query Sort into band: "G75L"
// result range 1

// query Categorize the following entry: "E30W"
// result range 2

// query Pick a category. Item: "M12L"
// result range 2

// query Sort "S29L" into one of the categories.
// result range 3

// query Would you mind sorting "K73T" into the appropriate category?
// result range 3

// query Band for the recorded abundance fitness of "L77F" ?
// result range 2

// query Form field 'band' for "L34D"
// result range 2

// query // bin(item) where item = "R57L"
// result range 2

// query Sort "E38C" into one of the categories.
// result range 2
